The values you see were collected from EPA's ToxValDB 9.5.

Tested on: Rattus norvegicus
Details: acute; oral; gavage; Sprague-Dawley
Value Type: LD50

[
  {
    "Compound": "CCCCCCCC/C=C\\CCCCCCCC#N [(Z)-9-Octadecenenitrile]",
    "Study Target": "Rattus norvegicus",
    "LD50": "> 5000 mg/kg"
  }
]

Prompt: Which LD50 is reported for this compound? CCN(CC)c1ccc2c(c1)Oc1cc(C)c(Nc3ccccc3)cc1C21OC(=O)c2ccccc21 (stereo not given)
Completion: > 2000 mg/kg

Prompt: # repeat for O=C([O-])c1ccc2ccccc2c1.O=C([O-])c1ccc2ccccc2c1.[Zn+2] [Zinc naphthenate]
Completion: > 5000 mg/kg

Prompt: Entry CCN(CC)c1ccc(C(=O)c2ccccc2C(=O)O)c(O)c1 [2-[4-(Diethylamino)-2-hydroxybenzoyl]benzoic acid] please
Completion: > 5000 mg/kg

Prompt: Another: "CC1(C)NC(=O)NC1=O"
Completion: > 5000 mg/kg
